Could you please report measured IC50 for the items listed next?
target: CDK5-p25 kinase (Homo sapiens, UniProt Q00535); construct: purchased Invitrogen PV4677; experiment: CDK5-p25 kinase enzymatic assay; assay type: biochemical; settings: 500 nM-3 μM; 5 uM ATP, 0.3 nM CDK5-p25; read-out: IC50 potency, CDK5-p25 kinase enzymatic assay, 500 nM-3 μM
Sequence (Q00535 whole entry): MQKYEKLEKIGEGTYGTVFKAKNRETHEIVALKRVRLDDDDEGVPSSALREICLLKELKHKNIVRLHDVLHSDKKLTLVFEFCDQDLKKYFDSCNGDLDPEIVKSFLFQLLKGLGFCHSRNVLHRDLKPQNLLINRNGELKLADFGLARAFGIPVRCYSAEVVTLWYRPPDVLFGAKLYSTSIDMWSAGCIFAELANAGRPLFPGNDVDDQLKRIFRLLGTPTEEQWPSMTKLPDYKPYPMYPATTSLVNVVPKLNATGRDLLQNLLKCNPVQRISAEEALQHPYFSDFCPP
Sequence (Q15078 99-307 partner limits assumed): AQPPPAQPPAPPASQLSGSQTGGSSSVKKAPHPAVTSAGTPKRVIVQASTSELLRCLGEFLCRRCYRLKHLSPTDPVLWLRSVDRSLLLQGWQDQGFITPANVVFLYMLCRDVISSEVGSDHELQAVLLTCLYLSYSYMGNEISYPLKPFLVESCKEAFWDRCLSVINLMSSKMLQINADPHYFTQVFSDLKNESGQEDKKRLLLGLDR

# value of IC50, CDK5-p25 kinase (Homo sapiens, UniProt Q00535), item C[C@@H](C(=O)Nc1ncn2c(C(F)(F)F)csc12)c1ccc2ncccc2c1 = 0.5 to 3 µM

IC50 of O=C(Cc1ccc2ccccc2c1)Nc1ncn2c(C3CC3)csc12 , assay on CDK5-p25 kinase (Homo sapiens, UniProt Q00535), is 0.5 to 3 µM

Query N#Cc1csc2c(NC(=O)Cc3ccc4ccccc4c3)ncn12 on CDK5-p25 kinase (Homo sapiens, UniProt Q00535); IC50 returned: 0.5 to 3 µM

// molecule COc1ccc2cc(C(C)C(=O)Nc3ncn4c(C(F)(F)F)csc34)ccc2c1 (stereo not shown) , assay CDK5-p25 kinase (Homo sapiens, UniProt Q00535), IC50 value: 0.5 to 3 µM

Here O=C(Cc1cc2ccccc2cn1)Nc1ncn2c(C(F)(F)F)csc12 was tested on CDK5-p25 kinase (Homo sapiens, UniProt Q00535), and its IC50 came to 0.5 to 3 µM

Tested on CDK5-p25 kinase (Homo sapiens, UniProt Q00535), the item O=C(Cc1cn2cccnc2n1)Nc1ncn2c(C(F)(F)F)csc12 showed IC50 equal to 0.5 to 3 µM

Short answer on CDK5-p25 kinase (Homo sapiens, UniProt Q00535) for O=C(Nc1ncn2c(C(F)(F)F)csc12)C(CO)c1ccc2ccccc2c1 (stereo not shown) , IC50: 0.5 to 3 µM

Measured IC50 (CDK5-p25 kinase (Homo sapiens, UniProt Q00535)), entry Cc1csc2c(NC(=O)Cc3ccc4ccccc4c3)ncn12 : 0.5 to 3 µM

Hey, CDK5-p25 kinase (Homo sapiens, UniProt Q00535) data for O=C(Cc1ccc2ccccc2c1)Nc1ncn2ccsc12 : IC50 came out at 0.5 to 3 µM

// returns IC50 for NC(C(=O)Nc1ncn2c(C(F)(F)F)csc12)c1ccc2ccccc2c1 (stereo not shown) with CDK5-p25 kinase (Homo sapiens, UniProt Q00535); value = 0.5 to 3 µM

---

target: CDK5-p25 kinase (Homo sapiens, UniProt Q00535); construct: purchased Invitrogen PV4677; test: CDK5-p25 kinase enzymatic assay; assay type: biochemical; conditions: '<50 nM'; 5 uM ATP, 0.3 nM CDK5-p25; read-out: IC50 potency, CDK5-p25 kinase enzymatic assay, <50 nM
measuredAttribute: IC50

get_value(item= O=C(Cc1ccc(Cl)nc1)Nc1ncn2c(C(F)(F)F)csc12 , readout=IC50) returns < 50 nM

Recorded result, O=C(Cc1ccc2cccnc2c1)Nc1ncn2c(C(F)(F)F)csc12 , IC50: < 50 nM

Field IC50 (entry O=C(Cc1cccc2ccccc12)Nc1ncn2c(C(F)(F)F)csc12 ) reads < 50 nM

The measured IC50 associated with COc1cccc2cc(CC(=O)Nc3ncn4c(C(F)(F)F)csc34)ccc12 reads < 50 nM

// IC50 lookup, compound = COc1ccc2cc(CC(=O)Nc3ncn4c(C(F)(F)F)csc34)ccc2c1 , result: < 50 nM

Documented IC50 of O=C(Cc1ccc(Cl)cc1)Nc1ncn2c(C(F)(F)F)csc12 : < 50 nM

Reported IC50 of O=C(Cc1ccc2ccccc2c1)Nc1ncn2c(C(F)(F)F)c(C(=O)O)sc12 : < 50 nM

The measured IC50 associated with Cc1ccc(-c2ccc(CC(=O)Nc3ncn4c(C(F)(F)F)csc34)cc2)cn1 reads < 50 nM

Measured IC50, O=C(Cc1ccc(-c2nn[nH]n2)cc1)Nc1ncn2c(C(F)(F)F)csc12 : < 50 nM

---

Consider the following compounds; for each one, report its pIC50.
molecular target: CDK5-p25 kinase (Homo sapiens, UniProt Q00535); construct: purchased Invitrogen PV4677; assay: CDK5-p25 kinase enzymatic assay; format: biochemical; conditions: 50 nM-99 nM; 5 uM ATP, 0.3 nM CDK5-p25; read-out: IC50 potency, CDK5-p25 kinase enzymatic assay, 50 nM-99 nM
pIC50: −log10 of the molar value.

pIC50 for CDK5-p25 kinase (Homo sapiens, UniProt Q00535) with input Cn1cc(-c2ccc(CC(=O)Nc3ncn4c(C(F)(F)F)csc34)cc2)cn1 equals 7.00 to 7.30

Record Nc1cc(Nc2cccc(CC(=O)Nc3ncn4c(C(F)(F)F)csc34)c2)ccn1 / CDK5-p25 kinase (Homo sapiens, UniProt Q00535), pIC50 recorded as 7.00 to 7.30

pIC50 value, target or system CDK5-p25 kinase (Homo sapiens, UniProt Q00535), for Nc1ncc(-c2ccc(CC(=O)Nc3ncn4c(C(F)(F)F)csc34)cc2)cn1 : 7.00 to 7.30

Considering O=C(Cc1ccc(-c2ccncc2)cc1)Nc1ncn2c(C(F)(F)F)csc12 , its pIC50 with CDK5-p25 kinase (Homo sapiens, UniProt Q00535) was recorded as 7.00 to 7.30

Query O=C(Cc1ccc(C(=O)N2CCCC2)cc1)Nc1ncn2c(C(F)(F)F)csc12 on CDK5-p25 kinase (Homo sapiens, UniProt Q00535); pIC50 returned: 7.00 to 7.30
